tested on: U-251; experiment: NCI tumour cell line growth inhibition, 48 h
The source made the active and inactive calls. Cut-off read from the data, not from the text of the source: active = GI50 up to about 1.1 µM and inactive = higher.
Entry note: the call must match one of active, inactive

What is the recorded call for this compound in the test? O=c1c2cc([N+](=O)[O-])ccc2n2n1CCCC2
inactive

Item: O=C(c1ccc(Cl)cc1)C(O)c1ccc(Cl)cc1 (stereo not drawn)
inactive

Item: CC1NOC(=O)C1/N=N/c1ccc(Cl)cc1Cl (stereo not drawn)
inactive

Item: CCc1c[n+]2c(cc1C1=CN3c4ccccc4[C@]45CCN6C/C(=C/CO)[C@H](C[C@H]64)[C@@H]([C@@H]1O)[C@H]35)-c1[nH]c3ccccc3c1CC2
inactive

---

tested on: ACHN; experiment: NCI tumour cell line growth inhibition, 48 h
Calls of active or inactive are those of the source. No stated cut-off is given here; in the data, active = GI50 up to about 1.1 µM and inactive = higher.
Entry note: the call must match one of label 1 = active, label 0 = inactive

Answered examples (10):
* CCSc1n/c(=C\c2ccco2)c2nnnn12 | label 0
* NC(CCCNCc1ccccc1O)C(=O)O (configuration not stated) | label 0
* COC(=O)C1=C(OC(=O)c2ccccc2)C(C(=O)OC)[C@]2(O)[C@@H](C(=O)OC)[C@H]1C[C@@H](c1ccccc1)[C@@H]2C(=O)OC (some centres not stated) | label 0
* C[C@]12CCC(=O)C(O)=C1CC[C@@H]1C2CC[C@]2(C)Nc3c(cnn3-c3ccccc3)CC12 (some centres not stated) | label 0
* COc1ccc(C2=C(N)c3ncccc3C2=O)cc1 | label 0
* O=c1[nH]nc(Cc2ccccc2)n1/N=C/c1ccccc1Cl | label 0
* CCOC(=O)C(=Cc1ccc(C(=O)OC)cc1)C(=O)OCC | label 0
* O=C(c1ccc(Cl)cc1)C(O)c1ccc(Cl)cc1 (configuration not stated) | label 0
* C=C1CN(C2=NCCO2)C1 | label 0
* CC[P+](C#Cc1ccccc1)(c1ccccc1)c1ccccc1 | label 0

We now examine a further molecule.
What is the recorded call for this molecule in the test? O=C(/C=C/c1ccc2c(c1)OCO2)NCCc1ccco1
label 0

---

test system: A498; test: NCI tumour cell line growth inhibition, 48 h
Calls of active or inactive are those of the source. Cut-off read from the data, not from the text of the source: active = GI50 up to about 1.1 µM and inactive = higher.
Entry note: the call must match one of active, inactive

Answered examples (10):
* CC(=O)OC1C(COC(N)=O)OC(n2c(-c3ccc(C)cc3)cc(-c3ccccc3)c(C#N)c2=O)C(OC(C)=O)C1OC(C)=O (stereo not given) | inactive
* Cc1c(-c2ccccc2)c(-c2ccc(OCCN(C)C)cc2)n2ccccc12 | inactive
* O=C(O)CCC(=O)N1c2ccccc2CC1c1c[nH]c2ccccc12 (stereo not given) | inactive
* CN(C)CC1CC/C(=C\c2ccc(Cl)c(Cl)c2)C1=O (stereo not given) | inactive
* O/N=C/C1C(OCc2ccccc2)C(OCc2ccccc2)C(OCc2ccccc2)CN1Cc1ccccc1 (stereo not given) | inactive
* O=C(CC(=O)Nc1cccc(Cl)c1)NNCC(=O)Nc1nnc(-c2ccccc2)s1 | inactive
* CCCCCCCCCCOc1ccc(/N=N/c2nnc(-c3ccc(OCCCCC)cc3)s2)cc1 | inactive
* Nc1ccc(-c2nc3cc(F)ccc3s2)cc1CO | active
* CCNC(=O)C#CC(=O)NCC | inactive
* Cn1ccc(C(=O)N2CCSC2=S)c(OCc2ccccc2)c1=O | inactive

What is the recorded call for this compound in the test? COc1ncc(C#CC(=O)c2ccccc2OC)c(OC)n1
inactive

Item: CC(=O)Oc1ccc(-c2cc3ccccc3oc2=O)cc1
inactive

Item: CCOC(=O)COS(=O)(=O)C(F)(F)F
inactive

Item: CCOC(=O)C1S/C(=N\c2ccc(Cl)cc2)N=C1C (stereo not given)
inactive

Item: CC1=C(Oc2ccccc2)C(CCC(=O)O)c2c(O)cc(Cl)c(O)c21 (stereo not given)
inactive

Item: CC(C)C(NC(=O)C(Cc1ccccc1)NC(=O)[C@H]1CCC[C@H]1NC(=O)C(Cc1ccc(OC(C)(C)C)cc1)NC(=O)OC(C)(C)C)C(N)=O (stereo not given in full)
inactive

Item: O=C(O)c1cc2cc(c1)/N=C/c1ccccc1OCc1cccc(n1)COc1ccccc1/C=N/2
inactive

Item: O=c1[nH]c(=S)[nH]c(-c2ccccc2)c1Cc1c(O)ccc2ccccc12
inactive

Item: O=C(Cn1ccnc1[N+](=O)[O-])NCc1ccc(F)cc1
inactive

These data points were gathered from ChEMBL document CHEMBL1201862.
